The reported measurements were obtained from PubChem BioAssay (NCI).

System: RXF 393 renal
Assay: NCI tumour cell line growth inhibition, 48 h
// reported TGI for each item listed
Write the answer as a number in µM, unit excluded.

In [3]: df
Out[3]:
                                givensmiles  measuredparameter  resultnumber
0  C=CCN=c1sc2c(n1NC(=O)c1cc3ccc1CCc1ccc(cc1)CC3)C(=O)c1ccccc1C2=O                TGI          2.71

// moving on: another record for TGI
Form: compound = O=C1C(Cl)=C(Nc2cccc(F)c2)C(=O)N1Cc1ccc(Cl)cc1 ; TGI = 4.91

----------
System: SF-268 CNS
Assay: NCI tumour cell line growth inhibition, 48 h
// reported TGI for each item listed

Form: compound = CN(CCNC(=O)c1nn(-c2ccccc2)c2c1Cc1ccccc1-2)CCNC(=O)c1nn(-c2ccccc2)c2c1Cc1ccccc1-2 ; TGI = 4.74 µM

Form: compound = CN(Cc1ccccc1)C(=NC#N)N(Cc1ccccc1)Cc1ccccc1 ; TGI = > 100 µM

Form: compound = Cc1c[n+](=O)c2ccccc2n1[O-] ; TGI = > 100 µM
